- target-or-test-system: GRB10 (Homo sapiens, UniProt Q13322)
- Construct: the DNA-tagged SH2 domain concentrations used in this study were <0.1 nM; made in house; host or cells: HEK293 (transient transfection; unpurified extract)
- Sequence (Q13322 493-574 limits assumed): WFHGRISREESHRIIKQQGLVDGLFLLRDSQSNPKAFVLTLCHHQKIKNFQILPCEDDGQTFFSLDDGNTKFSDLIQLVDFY
- assay-method-text: biochemical
- Assay type: binding
- condition-label: read-out: percent of DMSO vehicle control
Non-standard residues stand in square brackets, D forms with d. Residues, ends and D or L forms follow the SMILES beside them. *: point of attachment. pY = N[C@@H](Cc1ccc(OP(=O)(O)O)cc1)C(=O)O; Caffeoyl = O=C(/C=C/c1ccc(O)c(O)c1)*
measure: percent of DMSO vehicle control at 10 µM

[[record]]
molecule = "CC[C@H](C)[C@H](NC(=O)[C@H](CCC(=O)O)NC(=O)[C@H](CCC(=O)O)NC(=O)[C@H](Cc1ccc(OP(=O)(O)O)cc1)NC(=O)/C=C/c1ccc(O)c(O)c1)C(=O)N[C@@H](CCC(=O)O)C(=O)O [Caffeic acid-pYEEIE] (Caffeoyl-[pY]EEIE-OH)"
reported_result = "0.7%"

[[record]]
molecule = "CC(=O)N1CC[C@H]2CC[C@@H](C(=O)N[C@@H](CCC(N)=O)C(=O)NC(c3ccccc3)c3ccccc3)N2C(=O)[C@@H](NC(=O)c2cc3cc(C(F)(F)P(=O)(O)O)ccc3[nH]2)C1"
reported_result = "122%"

[[record]]
molecule = "CC(=O)N[C@@H](Cc1ccc(CP(=O)(O)O)cc1)C(=O)NC1(C(=O)N[C@@H](CC(N)=O)C(=O)NCCCc2c(O)ccc3ccccc23)CCCCC1"
reported_result = "88.5%"


Alright, here's another molecule for you.
-- ask Recall the recorded percent of DMSO vehicle control at 10 µM for NC(=O)CC[C@H](NC(=O)[C@@H]1CC[C@@H]2CCN(C(=O)CCCCCC#Cc3cccc4c3CN(C3CCC(=O)NC3=O)C4=O)C[C@H](NC(=O)c3cc4cc(C(F)(F)P(=O)(O)O)ccc4[nH]3)C(=O)N21)C(=O)NC(c1ccccc1)c1ccccc1 (stereo partly shown) with GRB10 (Homo sapiens, UniProt Q13322) and state it.
-- reply 111%

----------
- target-or-test-system: PIK3R2(SH2dom.C-term.) (Homo sapiens)
- Construct: SH2dom.C-term. denotes SH2 domain closest to C-terminus of protein; made in house; host or cells: HEK293 (transient transfection, unpurified extract)
- Sequence (O00459 622-716 limits assumed): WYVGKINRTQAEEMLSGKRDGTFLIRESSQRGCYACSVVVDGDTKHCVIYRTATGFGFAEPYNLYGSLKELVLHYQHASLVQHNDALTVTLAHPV
- assay-method-text: biochemical
- Format: binding
- condition-label: dose-response
Non-standard residues stand in square brackets, D forms with d. Residues, ends and D or L forms follow the SMILES beside them. *: point of attachment. pY = N[C@@H](Cc1ccc(OP(=O)(O)O)cc1)C(=O)O; Caffeoyl = O=C(/C=C/c1ccc(O)c(O)c1)*
measure: KD

[[record]]
molecule = "O=C(CCl)Nc1cccc(CNC(=O)[C@H](Cc2ccc(OP(=O)(O)O)cc2)NC(=O)Cc2ccc(F)cc2)c1"
reported_result = "No Hit"

[[record]]
molecule = "CC[C@H](C)[C@H](NC(=O)[C@H](CCC(=O)O)NC(=O)[C@H](CCC(=O)O)NC(=O)[C@H](Cc1ccc(OP(=O)(O)O)cc1)NC(=O)/C=C/c1ccc(O)c(O)c1)C(=O)N[C@@H](CCC(=O)O)C(=O)O [Caffeic acid-pYEEIE] (Caffeoyl-[pY]EEIE-OH)"
reported_result = "No Hit"

[[record]]
molecule = "NC(=O)CC[C@H](NC(=O)[C@@H]1CC[C@@H]2CCN(C(=O)CCCCCC#Cc3cccc4c3CN(C3CCC(=O)NC3=O)C4=O)C[C@H](NC(=O)c3cc4cc(C(F)(F)P(=O)(O)O)ccc4[nH]3)C(=O)N21)C(=O)NC(c1ccccc1)c1ccccc1 (stereo partly shown)"
reported_result = "No Hit"

[[record]]
molecule = "CC(=O)N[C@@H](Cc1ccc(CP(=O)(O)O)cc1)C(=O)NC1(C(=O)N[C@@H](CC(N)=O)C(=O)NCCCc2c(O)ccc3ccccc23)CCCCC1"
reported_result = "No Hit"

